- test: recombinant barcode read abundance after kanamycin selection (control-corrected) (log10(CPM+1)); higher = more efficient recombination; sequences stand for … in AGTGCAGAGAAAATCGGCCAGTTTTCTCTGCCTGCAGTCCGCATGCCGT…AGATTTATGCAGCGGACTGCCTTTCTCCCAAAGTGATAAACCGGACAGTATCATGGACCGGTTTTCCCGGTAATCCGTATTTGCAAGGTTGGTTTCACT; site = the 11-nt target;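 note: IS621 recombinase and bridge RNA in Escherichia coli cells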
Label met for high-side recombinant barcode read abundance (log10) (at or above 0.3) and not met for low-side recombinant barcode read abundance (log10) (below it).

| sequence content | group label |
| --- | --- |
| CAAAGCCCTTGGGTTCTAACCTGTTGCCT (site CGGAGCCCTAG) | met |
| GCTGGCCCTTGGGTTCTAACCTGTTGCCT (site GTTGGCCCTAG) | met |
| ACTAGTCCTTGGGTTCTAACCTGTTGCGT (site ACTAGTCCTAC) | met |
| AGTAACCCTTGGGTTCTAACCTGTTGCCT (site AGTAACCCTAG) | met |
| AATGGGCCTTGGGTTCTAACCTGTTGCGT (site AATCGGCCTAC) | not met |
| CCGTCTACTTGGGTTCTAACCTGTTGCTA (site CCGTCTACTAA) | not met |
| TGGAGCCCTTGGGTTCTAACCTGTTGCAG (site TGGAGCCCTAT) | not met |
| CTATTCCCTTGGGTTCTAACCTGTTGCCT (site CTATTCCCTAG) | met |
| TTCATGTCTTGGGTTCTAACCTGTTGCTT (site TTCATGTCTAA) | met |
| CCATGGACTTGGGTTCTAACCTGTTGCCT (site CCAAGGACTAG) | not met |
| CACGGGTCTTGGGTTCTAACCTGTTGCTT (site CTCCGGTCTAA) | not met |
| GGGTTTGCTTGGGTTCTAACCTGTTGCCT (site GTGTTTGCTAG) | met |
| ATTGGTCCTTGGGTTCTAACCTGTTGCCT (site ATCGGTCCTAG) | not met |
| TCCTAACCTTGGGTTCTAACCTGTTGCCT (site TCCTAACCTAG) | met |
| CCTAAGCCTTGGGTTCTAACCTGTTGCAT (site CCTAAGCCTAT) | met |
| CCAGTCACTTGGGTTCTAACCTGTTGCCT (site CCAGTAACTAG) | met |
| TAACCGTCTTGGGTTCTAACCTGTTGCAT (site TAACAGTCTAC) | not met |
| GAGTTGCCTTGGGTTCTAACCTGTTGCGG (site GAGTAGCCTCC) | not met |
| GGGTCACCTTGGGTTCTAACCTGTTGCGG (site GGGTCACCTCC) | met |
| ACGAGTACTTGGGTTCTAACCTGTTGCGG (site ACGAGTACTCC) | met |
| CATTTCTCTTGGGTTCTAACCTGTTGCCT (site AATTTCTCTAG) | not met |
| TAACGTCCTTGGGTTCTAACCTGTTGCGT (site TAACGTACTCC) | not met |
| TATCGGCCTTGGGTTCTAACCTGTTGCCT (site TAGCGGCCTAG) | not met |
| CTAGACACTTGGGTTCTAACCTGTTGCCT (site CTCGACACTAG) | not met |
| TAGAACTCTTGGGTTCTAACCTGTTGCGC (site TAGAACTCTGC) | met |
| GAGGGTCCTTGGGTTCTAACCTGTTGCTT (site GAGGGTCCTAA) | met |
| AACGTACCTTGGGTTCTAACCTGTTGCAG (site AACGTACCTCT) | met |
| CATCTATCTTGGGTTCTAACCTGTTGCCT (site CATCGATCTAG) | met |
| TACAGTACTTGGGTTCTAACCTGTTGCCT (site CACAGTACTAG) | met |
| GACGTGTCTTGGGTTCTAACCTGTTGCCG (site GACGTGTCTCG) | met |
| TGTGAGTCTTGGGTTCTAACCTGTTGCTT (site TGTGAGTCTAC) | not met |
| AGTATAACTTGGGTTCTAACCTGTTGCTG (site AGTATAACTCA) | not met |
| AGCCCTCCTTGGGTTCTAACCTGTTGCTT (site AGCCCTCCTCA) | met |
| GTAGGCGCTTGGGTTCTAACCTGTTGCCT (site GTGGGCGCTAG) | met |
| GAGTCTACTTGGGTTCTAACCTGTTGCTT (site GACTCTACTAA) | met |
| GAGTCGGCTTGGGTTCTAACCTGTTGCTT (site GAGTCGGCTAA) | met |
| CGTCAACCTTGGGTTCTAACCTGTTGCCT (site CGTCAGCCTAG) | not met |
| TAGCGTACTTGGGTTCTAACCTGTTGCGT (site TAGCGTACTAC) | met |
| TGCGAGTCTTGGGTTCTAACCTGTTGCCT (site TGCAAGTCTAG) | met |
| AAGTCCTCTTGGGTTCTAACCTGTTGCTT (site AAGCCCTCTAA) | met |
| TAGCGGCCTTGGGTTCTAACCTGTTGCCT (site TATCGGCCTAG) | not met |
| TAGACATCTTGGGTTCTAACCTGTTGCAT (site TAGACATCTAT) | met |
